# Tgt: T1, human IGSF11 (VSIG3) on cells (human, UniProt Q5DX21 23-431)
# T1 sequence: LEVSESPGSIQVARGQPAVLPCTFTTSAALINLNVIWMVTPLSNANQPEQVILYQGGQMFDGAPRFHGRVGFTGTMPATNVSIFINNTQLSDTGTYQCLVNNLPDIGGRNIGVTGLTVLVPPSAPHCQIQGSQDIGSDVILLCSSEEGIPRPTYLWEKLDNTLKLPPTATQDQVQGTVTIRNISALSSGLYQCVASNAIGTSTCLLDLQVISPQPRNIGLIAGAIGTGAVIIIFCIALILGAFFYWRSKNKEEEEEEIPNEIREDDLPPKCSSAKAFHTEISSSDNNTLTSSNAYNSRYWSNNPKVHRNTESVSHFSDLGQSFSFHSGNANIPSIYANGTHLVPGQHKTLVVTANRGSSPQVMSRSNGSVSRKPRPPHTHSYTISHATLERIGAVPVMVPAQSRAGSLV
# Assay text: FACS, IgG1-format antibodies; CL-11 cells (C), a line that does not express IGSF11 (specificity control), scrambled control siRNA (SC)
Quantity: percentage binding (FACS heat-map) (%)

A-026 (IgG1 format) (antibody, V domains shown, human IgG1 format) VH: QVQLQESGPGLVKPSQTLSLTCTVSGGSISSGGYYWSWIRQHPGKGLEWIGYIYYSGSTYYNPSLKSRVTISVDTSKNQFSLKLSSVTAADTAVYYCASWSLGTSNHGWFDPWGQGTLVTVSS VL: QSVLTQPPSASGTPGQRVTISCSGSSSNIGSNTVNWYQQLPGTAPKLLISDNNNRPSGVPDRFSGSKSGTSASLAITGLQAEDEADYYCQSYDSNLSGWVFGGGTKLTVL: 3.6
A-011 (IgG1 format) (antibody, V domains shown, human IgG1 format) VH: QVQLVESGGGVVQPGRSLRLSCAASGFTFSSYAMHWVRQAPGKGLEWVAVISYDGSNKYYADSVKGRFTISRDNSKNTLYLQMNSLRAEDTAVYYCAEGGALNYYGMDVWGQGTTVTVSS VL: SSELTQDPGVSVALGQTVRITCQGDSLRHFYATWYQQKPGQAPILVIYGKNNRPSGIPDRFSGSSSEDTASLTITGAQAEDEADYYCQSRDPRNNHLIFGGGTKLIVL: 2.87
B-002 (chain-swapped IgG1) (antibody, V domains shown, human IgG1 format; also called B2) VH: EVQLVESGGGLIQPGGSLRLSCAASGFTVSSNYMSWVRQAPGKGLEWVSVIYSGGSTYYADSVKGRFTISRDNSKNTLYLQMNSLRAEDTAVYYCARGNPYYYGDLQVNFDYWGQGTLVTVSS VL: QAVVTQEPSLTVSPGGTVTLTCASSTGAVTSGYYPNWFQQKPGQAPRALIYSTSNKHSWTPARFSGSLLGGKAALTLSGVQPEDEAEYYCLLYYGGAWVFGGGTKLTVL: 3
A-027 (IgG1 format) (antibody, V domains shown, human IgG1 format) VH: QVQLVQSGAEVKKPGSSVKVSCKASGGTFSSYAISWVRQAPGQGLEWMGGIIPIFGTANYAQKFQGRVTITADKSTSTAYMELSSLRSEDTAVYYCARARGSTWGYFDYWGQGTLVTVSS VL: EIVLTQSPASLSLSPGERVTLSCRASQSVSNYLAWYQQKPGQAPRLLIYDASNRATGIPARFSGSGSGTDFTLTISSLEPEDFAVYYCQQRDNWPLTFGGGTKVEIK: 3.08
